molecular target: UniProt:P11229; assay: Displacement of [3H]NMS from human muscarinic M1 receptor expressed in CHO-K1 cells after 1 hr by scintillation counting; format: cell-based
Sequence (P11229 whole entry): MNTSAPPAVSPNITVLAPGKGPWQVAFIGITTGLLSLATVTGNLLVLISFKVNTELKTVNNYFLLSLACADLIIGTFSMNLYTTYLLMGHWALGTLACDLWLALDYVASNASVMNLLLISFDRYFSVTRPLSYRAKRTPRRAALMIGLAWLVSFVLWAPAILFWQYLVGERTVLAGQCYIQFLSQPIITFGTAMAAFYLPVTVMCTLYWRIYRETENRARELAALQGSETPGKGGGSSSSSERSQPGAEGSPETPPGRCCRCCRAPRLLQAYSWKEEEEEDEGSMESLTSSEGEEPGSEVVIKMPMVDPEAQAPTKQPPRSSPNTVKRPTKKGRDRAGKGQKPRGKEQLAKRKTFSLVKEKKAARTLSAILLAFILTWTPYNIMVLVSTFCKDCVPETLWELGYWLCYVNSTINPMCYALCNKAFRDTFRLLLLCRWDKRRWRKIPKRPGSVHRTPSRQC
pIC50: −log10 of the molar value.
PARAMETER: pIC50

>  <MOLECULAR STRING>
C[N+]12CCC(CC1)[C@@H](OC(=O)N(Cc1cccs1)c1ccccc1)C2

>  <MEASUREMENT>
8.04

$$$$
>  <MOLECULAR STRING>
CCCCCN(C(=O)O[C@H]1CN2CCC1CC2)c1ccccc1

>  <MEASUREMENT>
9.10

$$$$
>  <MOLECULAR STRING>
CCCCN(Cc1cccs1)C(=O)O[C@H]1CN2CCC1CC2

>  <MEASUREMENT>
9.10

$$$$
>  <MOLECULAR STRING>
O=C(O[C@H]1CN2CCC1CC2)N(Cc1ccsc1)c1ccccc1

>  <MEASUREMENT>
9.40

$$$$
>  <MOLECULAR STRING>
O=C(O[C@H]1C[N+]2(CCCc3cccs3)CCC1CC2)N(Cc1ccccc1)c1ccccc1.[Br-]

>  <MEASUREMENT>
8.85

$$$$
>  <MOLECULAR STRING>
CCCN(C(=O)O[C@H]1CN2CCC1CC2)c1ccccc1

>  <MEASUREMENT>
7.57

$$$$
>  <MOLECULAR STRING>
O=C(O[C@H]1CN2CCC1CC2)N(Cc1cccs1)Cc1cccs1

>  <MEASUREMENT>
8.62

$$$$

Just for reference, ChEMBL document CHEMBL1777779 is where these values come from.
